- Tested on: HT-29 cells
- method-description: HT29 cells 0FBS assay in vitro: TNF-α/SMAC mimetic/zVAD-FMK induced necroptosis, CellTiter-Glo cell viability (RIP1 inhibitory activity)
- Format: cell-based
- condition-description: Homo sapiens, FBS free medium, TNF-α (10 ng/ml) + SMAC mimetic (6 uM) + zVAD-FMK (10 μM), 20 hours, geometric mean EC50
Give measured EC50 for each item. Keep answers brief.

Measured EC50, Cc1nc(C)c(C2CC=NN2C(=O)N2CC(Oc3cc(-c4c(C)cnn4C)ncc3F)C2)s1 (stereo not drawn) : 0.1 to 1 µM

Measured EC50, Cn1ncc(C#N)c1-c1cc(OC2CN(C(=O)N3N=CC[C@H]3c3cncc(F)c3)C2)c(F)cn1 : 0.0001 to 0.1 µM

Measured EC50, Cc1nn(C)c(C)c1-c1cc(OC2CN(C(=O)N3N=CC[C@H]3c3cc(F)cc(C#N)c3)C2)c(F)cn1 : 0.0001 to 0.1 µM

Measured EC50, Cc1c(N)nn(C)c1-c1cc(OC2CN(C(=O)N3N=CC[C@H]3c3cncc(F)c3)C2)c(F)cn1 : 0.0001 to 0.1 µM

Measured EC50, Cc1nn(-c2cc(OC3CN(C(=O)C4=NNCC4c4cc(F)cc(F)c4)C3)c(F)cn2)c(C)c1C(N)=O (stereo not drawn) : 0.0001 to 0.1 µM

Measured EC50, Cc1cnn(C)c1-c1ccc(F)c(OC2CN(C(=O)N3N=CC[C@H]3c3cncc(C#N)c3)C2)n1 : 0.0001 to 0.1 µM

Measured EC50, Cc1cnn(C)c1-c1cc(OC2CN(C(=O)N3N=CCC3c3ccn(C)c3)C2)c(F)cn1 (stereo not drawn) : 0.0001 to 0.1 µM

Measured EC50, Cc1cnc([C@@H]2CC=NN2C(=O)N2CC(Oc3cc(-c4c(C)cnn4C)ncc3F)C2)s1 : 0.0001 to 0.1 µM

Measured EC50, Cc1cnn(C)c1-c1cc(OC2CN(C(=O)N3N=CC[C@H]3c3cc(F)cc(C#N)c3)C2)c(F)cn1 : 0.0001 to 0.1 µM

Measured EC50, Cc1nn(-c2cc(OC3CN(C(=O)N4N=CC[C@H]4c4ccccc4)C3)c(F)cn2)c(C)c1C(N)=O : 0.0001 to 0.1 µM

Measured EC50, Cc1cnc([C@H]2CC=NN2C(=O)N2CC(Oc3cc(-c4c(C)cnn4C)ncc3F)C2)s1 : 1 to 10 µM

Measured EC50, Cc1cnn(C)c1-c1cc(OC2CN(C(=O)N3N=CCC3c3ncccc3Cl)C2)c(F)cn1 (stereo not drawn) : 0.0001 to 0.1 µM

Measured EC50, Cc1cnn(C)c1-c1nc(OC2CN(C(=O)N3N=CCC3c3cc(F)cc(F)c3)C2)c(F)cc1F (stereo not drawn) : 0.0001 to 0.1 µM

Measured EC50, Cn1cc(-c2cc(OC3CN(C(=O)N4N=CC[C@H]4c4cc(F)cc(C#N)c4)C3)c(F)cn2)nn1 : 0.1 to 1 µM

Measured EC50, Cc1nn(-c2cc(OC3CN(C(=O)N4N=CC[C@H]4c4cc(F)cc(C#N)c4)C3)c(F)cn2)c(C)c1C(N)=O : 0.0001 to 0.1 µM
